SYSTEM: BM3 A82F/F87V double mutant (DM) heme domain (Priestia megaterium, UniProt P14779, A83F/F88V)
Construct: The BM3 heme domain proteins (WT and the DM A82F/F87V variant) used in this study were expressed as described in our previous studies; made in house; host or cells: E. coli BL21 (DE3)
Sequence (P14779 2-472 A83F/F88V): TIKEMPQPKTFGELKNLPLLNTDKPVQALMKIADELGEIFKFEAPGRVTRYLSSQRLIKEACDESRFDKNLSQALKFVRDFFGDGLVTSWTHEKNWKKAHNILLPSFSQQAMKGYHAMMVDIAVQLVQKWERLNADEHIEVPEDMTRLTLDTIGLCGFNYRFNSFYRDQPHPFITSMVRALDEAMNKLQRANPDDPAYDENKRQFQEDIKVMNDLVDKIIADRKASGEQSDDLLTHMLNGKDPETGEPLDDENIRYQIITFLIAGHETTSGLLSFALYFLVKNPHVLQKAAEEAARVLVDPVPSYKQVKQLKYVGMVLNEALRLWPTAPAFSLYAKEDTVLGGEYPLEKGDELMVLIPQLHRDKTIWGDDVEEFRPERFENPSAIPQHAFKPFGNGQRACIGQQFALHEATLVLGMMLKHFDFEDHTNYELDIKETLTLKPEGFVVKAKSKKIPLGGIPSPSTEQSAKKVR
PROCEDURE_SUMMARY: biochemical
Type: binding, Bacillus megaterium
STATED_CONDITIONS: DM BM3 heme domain; starting wavelength 418 nm
Description: This leads to dioxygen (O2) binding to heme iron and to the progression of the P450 catalytic cycle that leads to monooxygenation of the substrate. […] Spectral binding data were fitted using hyperbolic (Michaelis-Menten)[30] or tight-binding (Morrison)[31] equations, or by using the Hill function[32] in cases where there was a clear sigmoidal dependence of heme absorbance change on azole drug concentration. […]
OUTCOME_MEASURE: Soret Shift (final Soret wavelength at apparent saturation) (nm)

C[C@@H](c1ncncc1F)[C@](O)(Cn1cncn1)c1ccc(F)cc1F [Voriconazole]: 420
C[C@@H](c1nc(-c2ccc(C#N)cc2)cs1)[C@](O)(Cn1cncn1)c1ccc(F)cc1F [Ravuconazole]: 422
Clc1ccc(C(Cn2ccnc2)OCc2ccsc2Cl)c(Cl)c1 (centres unmarked) [Tioconazole]: 423
CC[C@@H]([C@H](C)O)n1ncn(-c2ccc(N3CCN(c4ccc(OC[C@@H]5CO[C@@](Cn6cncn6)(c6ccc(F)cc6F)C5)cc4)CC3)cc2)c1=O [Posaconazole]: 422
c1ccc(-c2ccc(C(c3ccccc3)n3ccnc3)cc2)cc1 (centres unmarked) [Bifonazole]: 425
Clc1ccc(C(Cn2ccnc2)OCc2ccc(Sc3ccccc3)cc2)c(Cl)c1 (centres unmarked) [Fenticonazole nitrate]: 424
Clc1ccc(CCC(Cn2ccnc2)Sc2c(Cl)cccc2Cl)cc1 (centres unmarked) [Butoconazole nitrate]: 424
CC(C)(C)C(=O)C(Oc1ccc(Cl)cc1)n1ccnc1 (centres unmarked) [Climbazole]: 424
CCC(C)n1ncn(-c2ccc(N3CCN(c4ccc(OCC5COC(Cn6cncn6)(c6ccc(Cl)cc6Cl)O5)cc4)CC3)cc2)c1=O (centres unmarked) [Itraconazole]: 421
OC(Cn1cncn1)(Cn1cncn1)c1ccc(F)cc1F [Fluconazole]: 421
Clc1ccc(C(Cn2ccnc2)OCc2csc3c(Cl)cccc23)c(Cl)c1 (centres unmarked) [Sertaconazole nitrate]: 423

Data origin: paper PMC6367340
